Data origin: ChEMBL document CHEMBL3227986

Biological target: Thymidine kinase, cytosolic (Cricetulus griseus) (UniProt P09768)
Sequence (whole entry): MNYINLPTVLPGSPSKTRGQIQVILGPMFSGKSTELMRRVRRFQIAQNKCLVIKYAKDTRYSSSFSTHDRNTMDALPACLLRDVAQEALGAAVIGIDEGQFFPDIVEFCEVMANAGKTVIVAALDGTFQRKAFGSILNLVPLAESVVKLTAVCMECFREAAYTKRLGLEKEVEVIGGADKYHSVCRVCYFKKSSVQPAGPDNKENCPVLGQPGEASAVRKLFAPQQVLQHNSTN
Assay: Effect on thymidine kinase in BHK21 (C13) cells using [14C]thymidine at 5 mM after 10 mins by liquid scintillation spectrometer analysis relative to control in presence of Mg2+
Format: cell-based
Conditions: Mesocricetus auratus
Parameter measured: Activity (%)
// units = %; emit number, no label

# Input smiles, Activity, %
data = [
    ("Nc1ccn([C@@H]2O[C@H](COP(=O)(O)OP(=O)(O)OP(=O)(O)O)[C@@H](O)[C@H]2O)c(=O)n1", 15),
    ("Nc1nc(=O)c2ncn([C@@H]3O[C@H](COP(=O)(O)OP(=O)(O)OP(=O)(O)O)[C@@H](O)[C@@H]3O)c2[nH]1", 6),
    ("Nc1ncnc2c1ncn2[C@@H]1O[C@H](COP(=O)(O)OP(=O)(O)OP(=O)(O)O)[C@@H](O)[C@H]1O", 100),
]

Query: Please indicate recorded Activity of "Nc1ncnc2c1ncn2[C@H]1C[C@H](O)[C@@H](COP(=O)(O)OP(=O)(O)OP(=O)(O)O)O1" measured with Thymidine kinase, cytosolic (Cricetulus griseus) (UniProt P09768).
Response: 107

* * *

molecular target: UniProt O00142; assay: Effect on human mitochondrial thymidine kinase using [14C]thymidine at 2 mM after 10 mins by liquid scintillation spectrometer analysis relative to control in presence of Mg2+
Parameter measured: Activity
Answer with the number, then the unit.

# Input smiles, System, Activity
data = [
    ("Nc1ncnc2c1ncn2[C@@H]1O[C@H](COP(=O)(O)OP(=O)(O)OP(=O)(O)O)[C@@H](O)[C@H]1O", "UniProt O00142", "100%"),
]

Query: Indicate the recorded Activity value for this compound: "Nc1nc(=O)c2ncn([C@@H]3O[C@H](COP(=O)(O)OP(=O)(O)OP(=O)(O)O)[C@@H](O)[C@@H]3O)c2[nH]1"
Response: 46%

Query: // fetch Activity given entry "Nc1ncnc2c1ncn2[C@H]1C[C@H](O)[C@@H](COP(=O)(O)OP(=O)(O)OP(=O)(O)O)O1"
Response: 56%

Query: Provide measured Activity value, entry: "Nc1ccn([C@@H]2O[C@H](COP(=O)(O)OP(=O)(O)OP(=O)(O)O)[C@@H](O)[C@H]2O)c(=O)n1"
Response: 79%

* * *

target: Thymidine kinase 2, mitochondrial (Homo sapiens, UniProt O00142); test: Inhibition of human mitochondrial thymidine kinase
Sequence (O00142 whole entry): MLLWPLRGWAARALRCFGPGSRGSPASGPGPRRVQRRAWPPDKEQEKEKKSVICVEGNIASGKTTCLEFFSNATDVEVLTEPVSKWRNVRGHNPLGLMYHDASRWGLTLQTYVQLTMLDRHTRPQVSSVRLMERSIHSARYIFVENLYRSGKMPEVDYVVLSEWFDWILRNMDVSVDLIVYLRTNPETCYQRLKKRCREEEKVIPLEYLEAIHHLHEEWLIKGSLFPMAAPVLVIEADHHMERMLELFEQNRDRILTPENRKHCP
Parameter measured: pKi
Notebook: values listed as pKi are -log10 of the concentration (mol/L).

Query: # return recorded pKi for input "CCCc1cn([C@H]2C[C@H](O)[C@@H](CO)O2)c(=O)[nH]c1=O"
Response: 4.70

* * *

Parameter Activity: see the listing below.
Molecular target: Thymidine kinase, cytosolic (Homo sapiens)
Sequence (whole entry): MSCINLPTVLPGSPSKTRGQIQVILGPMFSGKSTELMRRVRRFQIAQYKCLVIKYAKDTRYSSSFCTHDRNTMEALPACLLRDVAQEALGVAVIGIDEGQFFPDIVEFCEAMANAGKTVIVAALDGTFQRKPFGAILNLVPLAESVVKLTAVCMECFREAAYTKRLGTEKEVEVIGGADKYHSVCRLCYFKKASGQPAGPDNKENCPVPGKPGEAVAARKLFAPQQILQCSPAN
Assay: Effect on human cytoplasmic thymidine kinase using [14C]thymidine at 2 mM after 10 mins by liquid scintillation spectrometer analysis relative to control in presence of Mg2+
I only need the number, in %, no unit after it.

Past entries and their recorded results:
# Input smiles, Unit of measurement, Activity
records = [
    ("Nc1ccn([C@@H]2O[C@H](COP(=O)(O)OP(=O)(O)OP(=O)(O)O)[C@@H](O)[C@H]2O)c(=O)n1", "%", 21),
    ("Nc1ncnc2c1ncn2[C@H]1C[C@H](O)[C@@H](COP(=O)(O)OP(=O)(O)OP(=O)(O)O)O1", "%", 108),
    ("Nc1nc(=O)c2ncn([C@@H]3O[C@H](COP(=O)(O)OP(=O)(O)OP(=O)(O)O)[C@@H](O)[C@@H]3O)c2[nH]1", "%", 36),
]

Next up:
Query: Give the reported value of Activity for this record: "Nc1ncnc2c1ncn2[C@@H]1O[C@H](COP(=O)(O)OP(=O)(O)OP(=O)(O)O)[C@@H](O)[C@H]1O"
Response: 100
